The entries below are paired with their reported IC50.
test system: human P2X3 receptor (Homo sapiens (Human))
experimental protocol: Evaluation of human P2X3 receptor inhibitory activity (Fluo-3 calcium fluorescence, FDSS 3000, ATP stimulation)
Assay type: cell-based
stated conditions: C6BU-1 cells stably expressing human P2X3 receptor, Fluo-3 fluorescence, FDSS 3000
Give the number; nM is assumed, so skip it.

Example entries begin here.
Cc1ccc(Cn2c(=O)n([C@@H](C)[C@@H](C)C(=O)O)c(=O)[nH]/c2=N\c2ccc(OC(C)C)c(Cl)c2)cc1 [Compound I-0931] ... 12
CCOC(=O)CCn1c(=O)[nH]/c(=N\c2ccc(OC3CC3)c(Cl)c2)n(Cc2ccc(C)cc2)c1=O [Compound I-1606] ... 15
COC(=O)CCn1c(=O)[nH]/c(=N\C2CCCCC2)n(Cc2ccc(C)cc2)c1=O [Compound I-1668] ... 309
CCc1nc2ccc(/N=c3\[nH]c(=O)n(CCC(=O)NC)c(=O)n3Cc3ccc(Cl)cc3)cc2s1 [Compound I-1738] ... 5
C[C@@H](C(=O)O)[C@H](C)n1c(=O)[nH]/c(=N\c2ccc3c(c2)CCC(=O)N3)n(Cc2ccc(Cl)cc2)c1=O [Compound I-1819] ... 873

Problem: What value of measured IC50 is listed for C[C@@H](C(=O)O)[C@H](C)n1c(=O)[nH]/c(=N\c2ccc3ncccc3c2)n(Cc2ccc(Cl)cc2)c1=O [Compound I-1834] ?
Result: 325

Problem: Field entry: Cc1ccc(Cn2c(=O)n(C[C@H](C)C(=O)O)c(=O)[nH]/c2=N\c2ccc(C3CCCCC3)cc2)cc1 [Compound I-1108]
Result: 50

Problem: Now this one: COC(=O)[C@@H](C)Cn1c(=O)[nH]/c(=N\c2ccc(C=C3CCCC3)cc2)n(Cc2ccc(C)cc2)c1=O [Compound I-1094]
Result: 103

Problem: Now consider C=Cc1ccc(Cn2c(=O)n(C[C@H](C)C(=O)O)c(=O)[nH]/c2=N\c2ccc(OC(C)C)cc2)cc1 [Compound I-1139] .
Result: 52

Problem: Likewise for Cc1ccc(Cn2c(=O)n(C[C@H](C)C(=O)O)c(=O)[nH]/c2=N\c2cccc(C3CCCCC3)c2)cc1 [Compound I-1109] ?
Result: 430

Problem: Query CCOC(=O)C1(Cn2c(=O)[nH]/c(=N\c3ccc(OC(C)C)c(C)c3)n(Cc3ccc(C)cc3)c2=O)CC1 [Compound I-0941] next
Result: 5

Problem: Try this compound next: CCOC(=O)CCn1c(=O)[nH]/c(=N\c2ccc(OC(C)C)c(F)c2)n(CC2C[C@H]3CC[C@@H]2C3)c1=O (some centres unmarked) [Compound I-1860]
Result: 150

Problem: And for O=c1[nH]/c(=N\c2ccc(OCC3CC3)cc2)n(Cc2ccc(Cl)cc2)c(=O)n1CC(CO)CO [Compound I-1849] ?
Result: 7

Problem: Would you kindly repeat that for COC(=O)[C@H](C)[C@H](C)n1c(=O)[nH]/c(=N\c2ccc(OC(C)C)c(F)c2)n(Cc2ccc(C)cc2)c1=O [Compound I-0967] ?
Result: 19

----------
test system: human P2X3 receptor (Homo sapiens (Human), UniProt P56373)
Sequence (P56373 whole entry): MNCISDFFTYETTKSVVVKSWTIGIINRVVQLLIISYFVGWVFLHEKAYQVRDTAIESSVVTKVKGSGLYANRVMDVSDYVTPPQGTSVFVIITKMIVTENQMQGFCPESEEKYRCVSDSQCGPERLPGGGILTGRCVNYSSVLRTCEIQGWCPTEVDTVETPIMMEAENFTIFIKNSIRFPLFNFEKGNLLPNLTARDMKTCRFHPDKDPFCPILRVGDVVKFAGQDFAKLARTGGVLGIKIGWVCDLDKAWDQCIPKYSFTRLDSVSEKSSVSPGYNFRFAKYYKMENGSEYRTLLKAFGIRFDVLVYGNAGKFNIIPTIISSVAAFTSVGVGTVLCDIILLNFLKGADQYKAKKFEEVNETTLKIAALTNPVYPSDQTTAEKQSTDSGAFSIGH
experimental protocol: Evaluation of human P2X3 receptor inhibitory activity (Fluo-3 calcium fluorescence, FDSS 3000, ATP stimulation);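 note: stimulus was 50 nM ATP with fluorescence followed for 3 min, and the response per well was peak post-ATP fluorescence divided by the reading at measurement start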
Assay type: cell-based
stated conditions: C6BU-1 cells stably expressing human P2X3 receptor, Fluo-3 fluorescence, FDSS 3000
Threshold 30 nM: IC50 strictly smaller gives MET, otherwise NOT MET.

For orientation, consider the following solved cases.
Cc1ccc(Cn2c(=O)n(C[C@H](C)C(=O)O)c(=O)[nH]/c2=N\c2cccc(C3CCCC3)c2)cc1 ... NOT MET
COC(=O)[C@@H](C)Cn1c(=O)[nH]/c(=N\c2ccc(OC(C)C)c(C#N)c2)n(Cc2ccc(C)cc2)c1=O ... NOT MET
CCOC(=O)CCn1c(=O)[nH]/c(=N\c2ccc(O[C@H](C)CC)c(Cl)c2)n(Cc2ccc(C)cc2)c1=O ... MET
CCCCCOc1ccc(/N=c2\[nH]c(=O)n(CCC(=O)O)c(=O)n2Cc2ccc(C)cc2)cc1 ... NOT MET
Cc1ccc(Cn2c(=O)n(CCC(=O)O)c(=O)[nH]/c2=N\c2ccc(OC3CC3)c(Cl)c2)cc1 ... NOT MET
CCc1nc2ccc(/N=c3\[nH]c(=O)n(CC(=O)NCCO)c(=O)n3Cc3ccc(Cl)cc3)cc2s1 ... MET

Now for a further molecule.
Problem: Given COC(=O)[C@@H](C)Cn1c(=O)[nH]/c(=N\c2ccc(OC(C)C)cc2)n(Cc2ccc(I)cc2)c1=O , is recorded IC50 strictly lower than 30 nM?
Result: NOT MET
